Hey, just so you know, these numbers are from the supplement of paper PMC10567573.

Kindly supply the reported protein stability index values for the records listed here.
B1: TRIM35 (parent)
chain: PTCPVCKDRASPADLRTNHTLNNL

Variants of: B1
Experiment: protein stability index of a GFP-peptide fusion (GPS, HEK-293T) (PSI 1-6); higher = more stable;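 further: lentivirally expressed fusions sorted by FACS into six bins by GFP to DsRed ratio, PSI derived from sequencing read proportions per bin multiplied by bin number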
Details: c terminus: a fixed tail appended
Respond numerically, and do not add a unit to the figure.

Quick note, protein stability index for `N22H` landed at 2.9

Quick note, protein stability index for `T17C` landed at 4.21

Quick note, protein stability index for `P1Q` landed at 2.7

Quick note, protein stability index for `P4Q` landed at 3.28

Quick note, protein stability index for `P12L` landed at 2.1

Quick note, protein stability index for `T2P` landed at 3.58

Quick note, protein stability index for `N23P` landed at 2.76

Quick note, protein stability index for `T20E` landed at 3.92

Quick note, protein stability index for `N18D` landed at 3.4

Quick note, protein stability index for `R9W` landed at 3.11

Quick note, protein stability index for `T2N` landed at 3.26
